- Tested on: Vero E6 infected with SARS-CoV-2
- procedure_text: SARS-CoV-2 infection rate relative to infected DMSO; higher = more infection, active = 60 or less
- measurement_parameters: 24 h
property_measured: SARS-CoV-2 infection rate (%)
State just the number; it will be interpreted in %.

{"molecule": "COc1ccc(/C=C/CCCCOc2ccc(C(=O)c3cccc(C(=O)O)c3)cc2CCC(=O)O)cc1 (10 µM)", "SARS-CoV-2 infection rate (%)": 95}
{"molecule": "FC(F)(F)c1cc(NC(=S)Nc2ccc(Br)cc2-c2nnn[nH]2)cc(C(F)(F)F)c1 (10 µM)", "SARS-CoV-2 infection rate (%)": 98}

// query Entry COc1ccc2[nH]cc(C3=CCNCC3)c2c1 (10 µM) needs its SARS-CoV-2 infection rate filled in; supply it.
// result 104

// query Entry CCCCCCCCCCCCCCCCCCCCCC(=O)Nc1ccn([C@@H]2O[C@H](CO)[C@@H](O)[C@@H]2O)c(=O)n1 [enocitabine] (10 µM) needs its SARS-CoV-2 infection rate filled in; supply it.
// result 94.5

// query Entry CC(C)c1ccc(C(=O)N=C(N)N)cc1S(C)(=O)=O [cariporide] (10 µM) needs its SARS-CoV-2 infection rate filled in; supply it.
// result 101

// query Entry COc1cc(OC)c(/C=C2/C(=O)Nc3ccccc32)c(OC)c1 (10 µM) needs its SARS-CoV-2 infection rate filled in; supply it.
// result 96.5

// query Entry CC(C)C[C@H](NC(=O)CNC(=O)[C@H](Cc1ccc(O)cc1)NC(=O)[C@H](CO)NC(=O)[C@H](Cc1c[nH]c2ccccc12)NC(=O)[C@H](Cc1cnc[nH]1)NC(=O)[C@@H]1CCC(=O)N1)C(=O)N[C@@H](CCCNC(=N)N)C(=O)N1CCC[C@H]1C(=O)NCC(N)=O [gonadorelin] (10 µM) needs its SARS-CoV-2 infection rate filled in; supply it.
// result 104

----------
Items are presented alongside their recorded inhibition of SARS-CoV-2 cytopathic effect.
- Tested on: Vero E6 infected with SARS-CoV-2
- procedure_text: inhibition of SARS-CoV-2 cytopathic effect; higher = more antiviral protection, active = above 15
- measurement_parameters: 8.33 nM; 48 h
State just the number; it will be interpreted in %.

{"molecule": "N#Cc1ccccc1-c1cc(-c2ccccn2)cn(-c2ccccc2)c1=O [Perampanel]", "observed_result": 0.93}
{"molecule": "COc1ccc(N(C(=O)Oc2c(C)cccc2C)c2ccnc(Nc3ccc(N4CCN(C)CC4)cc3)n2)c(OC)c1", "observed_result": 1.54}
{"molecule": "c1ccc(CCNc2nc(-c3ccccc3)cs2)cc1 [fanetizole]", "observed_result": 1.7}
{"molecule": "COc1cc2nc(C3CC3)nc(N3CCN(c4ccccc4OC)CC3)c2cc1OC", "observed_result": -1.01}

// query Entry CNCc1ccc(-c2cc(-c3nc(-c4ccc(S(=O)(=O)C(C)C)cc4)cnc3N)on2)cc1 needs its inhibition of SARS-CoV-2 cytopathic effect filled in; supply it.
// result 3.25

// query Entry C=CC(=O)c1ccc2ccccc2c1 [JAK3-inhibitor-V] needs its inhibition of SARS-CoV-2 cytopathic effect filled in; supply it.
// result -1.7

// query Entry COc1cc2c(cc1C(F)(F)F)N(C(=O)Nc1cc(F)cc(-c3cccnc3)c1)CC2 needs its inhibition of SARS-CoV-2 cytopathic effect filled in; supply it.
// result 2.35

// query Entry COc1ccc2c(c1)c(CC(=O)O)c(C)n2C(=O)c1ccc(Cl)cc1 [indomethacin] needs its inhibition of SARS-CoV-2 cytopathic effect filled in; supply it.
// result 0.75

----------
- Tested on: Vero E6 infected with SARS-CoV-2
- procedure_text: SARS-CoV-2 infection rate relative to infected DMSO; higher = more infection, active = 60 or less
- measurement_parameters: 24 h
property_measured: SARS-CoV-2 infection rate (%)
State just the number; it will be interpreted in %.

Below, 5 compounds whose answers are already recorded.
{"compound": "C#C[C@]1(O)CC[C@H]2[C@@H]3CCC4=CC(=O)CC[C@@H]4[C@H]3CC[C@@]21CC [norgestrel] (10 µM)", "SARS-CoV-2 infection rate / %": 102}
{"compound": "CC(C)(C)c1ccc(O)cc1 [4-tert-butylphenol] (10 µM)", "SARS-CoV-2 infection rate / %": 110}
{"compound": "Nc1cc(-c2ccncc2)c[nH]c1=O [amrinone] (10 µM)", "SARS-CoV-2 infection rate / %": 112}
{"compound": "CCCCOCCOc1nc(-c2ccc(C(=O)O)c(F)c2)sc1C (10 µM)", "SARS-CoV-2 infection rate / %": 108}
{"compound": "COC(=O)C1=C(C#N)NC(C)=C(C(=O)OC(C)C)C1c1cccc([N+](=O)[O-])c1 (stereo not drawn) [nilvadipine] (10 µM)", "SARS-CoV-2 infection rate / %": 106}

// query Entry O=C1NCC2(CCN(CCc3ccccc3)CC2)O1 [fenspiride] (10 µM) needs its SARS-CoV-2 infection rate filled in; supply it.
// result 101

// query Entry CCNC(=O)N1CCN(CCCC(c2ccc(F)cc2)c2ccc(F)cc2)CC1 [amperozide] (10 µM) needs its SARS-CoV-2 infection rate filled in; supply it.
// result 108

// query Entry C[C@]12CCC(=O)C=C1CC[C@@H]1[C@@H]2C(=O)C[C@]2(C)C(=O)CC[C@@H]12 [adrenosterone] (10 µM) needs its SARS-CoV-2 infection rate filled in; supply it.
// result 97.5

----------
- System: Vero E6 infected with SARS-CoV-2
- procedure_text: morphology score (similarity to uninfected cells); higher = more like uninfected cells
- measurement_parameters: 24 h
Items are presented alongside their recorded morphology score.
Returns: the value as a bare number; no unit string appended.

// query Entry CC(C)c1cc(-c2n[nH]c(=O)n2-c2ccc3c(ccn3C)c2)c(O)cc1O [ganetespib] (0.833333 µM) needs its morphology score filled in; supply it.
// result 0.0711

// query Entry CNc1cc2[nH]c(=O)n(-c3ccc(NC(=O)NS(=O)(=O)c4ccc(Cl)s4)cc3)c(=O)c2cc1F [elinogrel] (10 µM) needs its morphology score filled in; supply it.
// result 0.235

// query Entry COc1ccc2c(c1OC)C(=O)O[C@@H]2[C@H]1c2cc3c(cc2CCN1C)OCO3 [hydrastine-(1R,9S)] (10 µM) needs its morphology score filled in; supply it.
// result -0.0178

// query Entry CC(C)C[C@@H]1NC(=O)[C@@H](C(C)C)NC(=O)[C@@H]2CCCN2C(=O)[C@@H](CC(=O)O)NC(=O)[C@@H](Cc2c[nH]c3ccccc23)NC1=O (10 µM) needs its morphology score filled in; supply it.
// result 0.163

// query Entry C[C@@H]1C[C@H]2[C@@H]3CCC4=CC(=O)C=C[C@]4(C)[C@@]3(Cl)[C@@H](O)C[C@]2(C)[C@@]1(OC(=O)c1ccco1)C(=O)CCl (10 µM) needs its morphology score filled in; supply it.
// result 0.481

// query Entry CC[C@@H](CO)NCCN[C@@H](CC)CO [ethambutol] (10 µM) needs its morphology score filled in; supply it.
// result -0.117

// query Entry Cc1cn([C@H]2C=C[C@@H](CO)O2)c(=O)[nH]c1=O [stavudine] (10 µM) needs its morphology score filled in; supply it.
// result 0.031

// query Entry CC(C)(OCc1nn(Cc2ccccc2)c2ccccc12)C(=O)O [bindarit] (10 µM) needs its morphology score filled in; supply it.
// result 0.132

// query Entry CC(C)(C)c1[nH]cnc1/C=c1\[nH]c(=O)/c(=C/c2ccccc2)[nH]c1=O [plinabulin] (0.833333 µM) needs its morphology score filled in; supply it.
// result -0.0585

// query Entry NCC(=O)Nc1ccc(-n2nc(C(F)(F)F)cc2-c2ccc3c(ccc4ccccc43)c2)cc1 (0.833333 µM) needs its morphology score filled in; supply it.
// result -0.089

// query Entry C[C@H](Cc1ccc(O)c(O)c1)[C@@H](C)Cc1ccc(O)c(O)c1 [masoprocol] (10 µM) needs its morphology score filled in; supply it.
// result 0.0645

----------
- System: Vero E6 infected with SARS-CoV-2
- procedure_text: inhibition of SARS-CoV-2 cytopathic effect; higher = more antiviral protection, active = above 15
- measurement_parameters: 1 nM; 48 h
property_measured: inhibition of SARS-CoV-2 cytopathic effect (%)
State just the number; it will be interpreted in %.

Below, 2 compounds whose answers are already recorded.
{"compound": "CONC(=N)c1ccc(-c2ccc(-c3ccc(C(=N)NOC)cc3)o2)cc1 [pafuramidine]", "observed_result": -0.94}
{"compound": "CC(/C=C/C(=O)NO)=C\\[C@@H](C)C(=O)c1ccc(N(C)C)cc1 [trichostatin-a]", "observed_result": -3.04}

// query Entry COc1cc(O)c(C(=O)c2ccccc2)cc1S(=O)(=O)O [sulisobenzone] needs its inhibition of SARS-CoV-2 cytopathic effect filled in; supply it.
// result 1.82

// query Entry COc1ccc(-c2nc(N3CCOCC3)c3sc(CN(C)c4ncc(C(=O)NO)cn4)cc3n2)cn1 needs its inhibition of SARS-CoV-2 cytopathic effect filled in; supply it.
// result -0.39

// query Entry NC(=O)c1ncn([C@@H]2O[C@H](CO)[C@@H](O)[C@H]2O)c1N [acadesine] needs its inhibition of SARS-CoV-2 cytopathic effect filled in; supply it.
// result 0.23

// query Entry CN(C)[C@@H]1C(O)=C(C(N)=O)C(=O)[C@@]2(O)C(O)=C3C(=O)c4c(O)ccc(Cl)c4[C@@](C)(O)[C@H]3C[C@@H]12 needs its inhibition of SARS-CoV-2 cytopathic effect filled in; supply it.
// result 0.81

// query Entry Cc1nnsc1C(=O)Nc1ccc(-n2nc(C(F)(F)F)cc2C(F)(F)F)cc1 needs its inhibition of SARS-CoV-2 cytopathic effect filled in; supply it.
// result -4.22

// query Entry OCC(O)CN1CCN(c2ccccc2)CC1 (centres undefined) [dropropizine] needs its inhibition of SARS-CoV-2 cytopathic effect filled in; supply it.
// result -2.5

// query Entry CCN[C@@H](C)Cc1cccc(C(F)(F)F)c1 [dexfenfluramine] needs its inhibition of SARS-CoV-2 cytopathic effect filled in; supply it.
// result 1.76

Data origin, for the record: the supplement of paper PMC13380429
